System: Bacillus subtilis
Assay: cleaved RNA product abundance (RNA/gDNA barcode ratio) relative to median wild-type variant (ratio to wild type); higher = more accumulation of the downstream cleavage product
Conditions: experiment (reporter, strain, medium): exp 4a: truncated aprE reporter, strain BJT201 with 2% xylose (RNase J1 expressed); cleavage site: cggR-gapA (positions -7 to +36 mutated)
MEASURED_QUANTITY: cleaved RNA product abundance
Answer as a number with no unit attached.

cleaved RNA product abundance lookup needed for `ACAGACGAAGGAGCCGCAAAGAAGTTATTAAGGGAAGAATAATCCCTCAATATAAAGATCTCTCACTTATTTAAA` , thanks.
0.495

cleaved RNA product abundance lookup needed for `ACAGACGAAGGAGCCGCAATGAATTTATTAAGGGATGAATAATCCCTCAATATAAATATCTCTCACTTATTTAAA` , thanks.
0.786

cleaved RNA product abundance lookup needed for `ACAGACGAAGGAGCCGCAAAGAAGTTTTTAAGTGATGAATAATCCCTCAATATAAATATCTCTCACTTATTTAAA` , thanks.
0.0945

cleaved RNA product abundance lookup needed for `ACAGACGAAGGAGCCGCAAAGAACTTATTAAGGGATGAATAATCCCTCAATATAAATATTTCTCACTTATTTAAA` , thanks.
0.307

cleaved RNA product abundance lookup needed for `ACAGACGAAGGAGCCGCAAAGAAGTAATTAAGGGATGAATAATCCCTCAATATAACTATCTCTCACTTATTTAAA` , thanks.
0.215

cleaved RNA product abundance lookup needed for `ACAGACGAAGGAGCCGCAAAGAGGTTATTAAGGGATGAATAATCCCTCAATATAAATATCTCTCACTTATTTAAA` , thanks.
0.754

cleaved RNA product abundance lookup needed for `ACAGACGAAGGAGCCGCAAAGAATTTATTAAGGGATGAATAATCGCTCAATATAAATATCTCTCACTTATTTAAA` , thanks.
0.0604

====

Tested on: Bacillus subtilis
Assay: cleaved RNA product abundance (RNA/gDNA barcode ratio) relative to median wild-type variant (ratio to wild type); higher = more accumulation of the downstream cleavage product
Conditions: experiment (reporter, strain, medium): exp 4a: truncated aprE reporter, strain BJT201 with 2% xylose (RNase J1 expressed); cleavage site: cggR-gapA (positions -7 to +36 mutated)
Binning scheme for cleaved RNA product abundance: low end (below 0.2), middle (0.2 to below 0.4), high end (0.4 or more)

Could you tell me which band `ACAGACGAAGGAGCCGCAAAGAAATAATTAAGGGATGAATAATCCCTCAATATAAATATCTCTCACTTATTTAAA` belongs to?
middle

Could you tell me which band `ACAGACGAAGGAGCCGCAAAGAATTTATTAAGGGATGAATAATCCCTCAAAATAAATATCTCTCACTTATTTAAA` belongs to?
middle

Could you tell me which band `ACAGACGAAGGAGCCGCAAAGAAGTTATTAAGGGGTGAATAATCCTTCAATATAAATATCTCTCACTTATTTAAA` belongs to?
middle

Could you tell me which band `ACAGACGAAGGAGCCGCAAAGAAGTTATTAAGTGATGAATAATCCCTCAATATAAATAACTCTCACTTATTTAAA` belongs to?
low end

Could you tell me which band `ACAGACGAAGGAGCCGCAAAGAAGTTATCAAATGATGAATAATCCCTCAATATAAATATCTCTCACTTATTTAAA` belongs to?
low end

Could you tell me which band `ACAGACGAAGGAGCCGCAAAGAAGTTATAATGGGATGAATAATCCCTCAATATAAATATCTCTCACTTATTTAAA` belongs to?
middle

Could you tell me which band `ACAGACGAAGGAGCCGCAAAGGAATTATTAAGGGATGAATAATCCCTCAATATAAATATCTCTCACTTATTTAAA` belongs to?
high end

Could you tell me which band `ACAGACGAAGGAGCCGCAAAGAAATTATTAAGGGATGATTAATCCCTCAATATAAATATCTCTCACTTATTTAAA` belongs to?
high end

Could you tell me which band `ACAGACGAAGGAGCCGCTAAGAAGTTATTAAGGGACGAATAATCCCTCAATATAAATATCTCTCACTTATTTAAA` belongs to?
high end

Could you tell me which band `ACAGACGAAGGAGCCGCAAAGAAGTTATTAAGGGATGAAAAATCCCTCAATATAAATAACTCTCACTTATTTAAA` belongs to?
high end

Could you tell me which band `ACAGACGAAGGAGCCGCAAAGAAGTTATTAAGTGATGAATAATCCCTTAATATAAATATCTCTCACTTATTTAAA` belongs to?
middle

Could you tell me which band `ACAGACGAAGGAGCCGCAAAGAAATTATTAAGGGATGAATAATTCCTCAATATAAATATCTCTCACTTATTTAAA` belongs to?
high end

Could you tell me which band `ACAGACGAAGGAGCCGCAAAGAAGTTATTAAGGGATGAATACTCCGTCAATATAAATATCTCTCACTTATTTAAA` belongs to?
low end

Could you tell me which band `ACAGACGAAGGAGCCGCAAAGAAGTTATTAAGGGATGAATAATTCCTCAACATAAATATCTCTCACTTATTTAAA` belongs to?
low end

Could you tell me which band `ACAGACGAAGGAGCCGCAAAGAAGTTATTAAGCGATGAAGAATCCCTCAATATAAATATCTCTCACTTATTTAAA` belongs to?
low end
